B1: Transcription elongation factor A N-terminal and central domain-containing protein, residues 30 to 77; numbered along this chain, Q8N8B7 (parent)
chain: LTELETIYVTKEHLQETDVVRAVYRVLKNCPSVALKKKAKCLLSKWKA

- Variants of: B1
- assayText: abundance fitness (aPCA) (normalised: wild type 0, dead -1); higher = more abundant; growth selection in yeast, the domain comes from the species named
- experimentalParameters: Homo sapiens
Please mark Satisfied if the recorded abundance fitness is equal to or greater than -0.1, and Not satisfied if it falls below.

In: Check if abundance fitness >= -0.1 (inclusive). Item: E16Y
Out: Satisfied

In: Is abundance fitness at least -0.1? Consider K45I
Out: Not satisfied

In: Quick check: does L27Q have abundance fitness greater than or equal to -0.1?
Out: Not satisfied

In: I'd appreciate it if you could say whether L4R has abundance fitness at least equal to -0.1.
Out: Satisfied

In: Decide: abundance fitness of T10F >= -0.1?
Out: Not satisfied

In: Is it the case that K36S has abundance fitness reaching or exceeding -0.1?
Out: Not satisfied

In: Has V33M a recorded abundance fitness greater than or equal to -0.1?
Out: Satisfied

In: // inclusive: abundance fitness at least -0.1? input: N29F
Out: Satisfied

In: Test whether the variant Y24N records abundance fitness of -0.1 or higher.
Out: Not satisfied

In: Does abundance fitness meet or surpass -0.1 for E3N ?
Out: Satisfied

In: # check: abundance fitness of L43T is greater than or equal to -0.1
Out: Not satisfied

In: API: above_or_equal(metric=abundance fitness, cutoff=-0.1) for item V26N
Out: Not satisfied

In: Tell me whether abundance fitness is at least -0.1 here: C41I
Out: Not satisfied

In: Does the reported abundance fitness for E12G fall at or above the -0.1 mark?
Out: Not satisfied

In: Determine whether measured abundance fitness meets or exceeds -0.1 for V23D
Out: Not satisfied

In: Given the entry A48T , answer whether its abundance fitness meets or surpasses -0.1.
Out: Satisfied

In: // inclusive: abundance fitness at least -0.1? input: K11R
Out: Not satisfied

In: API: above_or_equal(metric=abundance fitness, cutoff=-0.1) for item S32C
Out: Satisfied

In: Given E16P , state whether its abundance fitness is at least -0.1.
Out: Satisfied

In: In plain terms: is recorded abundance fitness at least -0.1 for S32H ?
Out: Satisfied

In: Does the reported abundance fitness for L4T fall at or above the -0.1 mark?
Out: Satisfied

In: Please indicate if the recorded abundance fitness for L27C meets or exceeds -0.1.
Out: Not satisfied

In: Answer whether abundance fitness of Y24F is greater than or equal to -0.1.
Out: Satisfied

In: Please tell me: is the variant A22D at or over -0.1 in terms of abundance fitness?
Out: Not satisfied

In: Assess whether reported abundance fitness for I7D sits at -0.1 or higher.
Out: Satisfied

In: Textbook exercise: given the entry Y24Q , state whether its abundance fitness is greater than or equal to -0.1.
Out: Not satisfied

In: Decide: abundance fitness of T2K >= -0.1?
Out: Satisfied

In: Would you say A22L shows abundance fitness at minimum -0.1?
Out: Not satisfied

In: Check this variant for abundance fitness at or above -0.1: K28P
Out: Not satisfied

In: Determine whether measured abundance fitness meets or exceeds -0.1 for L43V
Out: Not satisfied

In: Has N29I a recorded abundance fitness greater than or equal to -0.1?
Out: Not satisfied

In: Given V26E , state whether its abundance fitness is at least -0.1.
Out: Not satisfied

In: Has K11L a recorded abundance fitness greater than or equal to -0.1?
Out: Satisfied

In: Given the entry A39S , answer whether its abundance fitness meets or surpasses -0.1.
Out: Not satisfied

In: Tell me whether abundance fitness is at least -0.1 here: T17Q
Out: Not satisfied

In: Does L27W have a reported abundance fitness of at least -0.1?
Out: Satisfied

In: hey, is abundance fitness for this one >= -0.1? L27T
Out: Not satisfied

In: Does the variant K47S have recorded abundance fitness that is -0.1 or more?
Out: Not satisfied

In: Quick check: does K38Q have abundance fitness greater than or equal to -0.1?
Out: Not satisfied

In: Does L42Q have a reported abundance fitness of at least -0.1?
Out: Not satisfied
